Target Or System: T1, human GIP receptor (human, UniProt P48546 22-466)
T1 sequence (looked up): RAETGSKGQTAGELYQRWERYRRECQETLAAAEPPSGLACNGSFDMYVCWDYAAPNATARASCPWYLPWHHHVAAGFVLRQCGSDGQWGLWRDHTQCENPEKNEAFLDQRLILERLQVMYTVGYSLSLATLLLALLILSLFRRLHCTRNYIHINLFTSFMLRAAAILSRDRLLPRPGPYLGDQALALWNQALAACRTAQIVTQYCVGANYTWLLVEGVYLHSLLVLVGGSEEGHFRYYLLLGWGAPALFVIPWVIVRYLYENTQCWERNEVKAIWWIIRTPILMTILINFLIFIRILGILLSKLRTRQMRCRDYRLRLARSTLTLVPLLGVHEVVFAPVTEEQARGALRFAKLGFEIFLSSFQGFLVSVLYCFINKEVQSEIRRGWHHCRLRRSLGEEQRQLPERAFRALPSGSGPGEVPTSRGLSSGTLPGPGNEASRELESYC
Protocol Notes: cell-based or functional assay
*1 amine or outer side, *2 acyl side, *3 side chain or, on linkers, in order; H or OH if unused. Where no end group is shown, it is not given here. Side-chain parts run from the residue outwards. [ ]: non-standard residue; d: D form. The star is where a group is joined. C18 diacid = O=C(O)CCCCCCCCCCCCCCCCC(=O)*; γGlu = O=C(O)[C@H](CCC(=O)[*:2])N[*:1]; TRX = not defined here; Aib = CC(C)(N)C(=O)O
// boundary case: EC50, CreLuc reporter, 100% hP equal to 7 nM maps to label 0; strictly smaller maps to label 1

A selection of reference data follows.
binder="YXEGTFTSDYSIXLEKAAQXAFVRHLINKXTRQRY (Aib at 2, 13, 20, 30; Lys29 epsilon-amino acylated with C20DA-gGlu-gGlu-gGlu-gGlu-gGlu-gGlu-eLys; C-terminal amide) [Compound 4]" group_label="label 0"
binder="Y[Aib]EGTFTSDYSI[Aib]LEKQAQ[Aib]AFVRHLINK([γGlu-γGlu-γGlu-γGlu-γGlu-γGlu-TRX-C18 diacid])[Aib]TRQRY-NH2 (reading uncertain) [Compound 31]" group_label="label 0"
binder="Y[Aib]EGTFTSDYSI[Aib]LEKQAQ[Aib]EFVRHLINK([γGlu-γGlu-γGlu-γGlu-C18 diacid])[Aib]TRQRY-NH2 [Compound 79]" group_label="label 1"

Next, consider the following binder.
**Query** Take the binder YXEGTFTSDYSIXLEKIAQXAFVRHLINKXTRQRY (Aib at 2, 13, 20, 30; Lys29 epsilon-amino acylated with C18DA-gGlu-gGlu-gGlu-gGlu-gGlu-gGlu-eLys; C-terminal amide) [Compound 24] and say whether its EC50, CreLuc reporter, 100% hP is less than 7 nM.
**Result** label 0
